Measured values drawn from patent US5661154A for this set.

EXPERIMENT DESCRIPTION: Solubility
Type: physicochemical
CONDITION LABEL: methanol/water 3:1, organic solvent or mixture; 25° C.; read-out: solubility in methanol/water (3:1 by vol.)
PARAMETER: solubility

// solubility value for Oc1nc(O)c2cn[nH]c2n1 [sodium oxypurinol, monosodium oxypurinol monohydrate] : ~2000 µg/mL
